Entries annotated with measured inhibition at 10 µM
target: hERG (KCNH2) (Homo sapiens); assay: Inhibition of human ERG at 10 uM relative to control
Sequence (Q12809 whole entry): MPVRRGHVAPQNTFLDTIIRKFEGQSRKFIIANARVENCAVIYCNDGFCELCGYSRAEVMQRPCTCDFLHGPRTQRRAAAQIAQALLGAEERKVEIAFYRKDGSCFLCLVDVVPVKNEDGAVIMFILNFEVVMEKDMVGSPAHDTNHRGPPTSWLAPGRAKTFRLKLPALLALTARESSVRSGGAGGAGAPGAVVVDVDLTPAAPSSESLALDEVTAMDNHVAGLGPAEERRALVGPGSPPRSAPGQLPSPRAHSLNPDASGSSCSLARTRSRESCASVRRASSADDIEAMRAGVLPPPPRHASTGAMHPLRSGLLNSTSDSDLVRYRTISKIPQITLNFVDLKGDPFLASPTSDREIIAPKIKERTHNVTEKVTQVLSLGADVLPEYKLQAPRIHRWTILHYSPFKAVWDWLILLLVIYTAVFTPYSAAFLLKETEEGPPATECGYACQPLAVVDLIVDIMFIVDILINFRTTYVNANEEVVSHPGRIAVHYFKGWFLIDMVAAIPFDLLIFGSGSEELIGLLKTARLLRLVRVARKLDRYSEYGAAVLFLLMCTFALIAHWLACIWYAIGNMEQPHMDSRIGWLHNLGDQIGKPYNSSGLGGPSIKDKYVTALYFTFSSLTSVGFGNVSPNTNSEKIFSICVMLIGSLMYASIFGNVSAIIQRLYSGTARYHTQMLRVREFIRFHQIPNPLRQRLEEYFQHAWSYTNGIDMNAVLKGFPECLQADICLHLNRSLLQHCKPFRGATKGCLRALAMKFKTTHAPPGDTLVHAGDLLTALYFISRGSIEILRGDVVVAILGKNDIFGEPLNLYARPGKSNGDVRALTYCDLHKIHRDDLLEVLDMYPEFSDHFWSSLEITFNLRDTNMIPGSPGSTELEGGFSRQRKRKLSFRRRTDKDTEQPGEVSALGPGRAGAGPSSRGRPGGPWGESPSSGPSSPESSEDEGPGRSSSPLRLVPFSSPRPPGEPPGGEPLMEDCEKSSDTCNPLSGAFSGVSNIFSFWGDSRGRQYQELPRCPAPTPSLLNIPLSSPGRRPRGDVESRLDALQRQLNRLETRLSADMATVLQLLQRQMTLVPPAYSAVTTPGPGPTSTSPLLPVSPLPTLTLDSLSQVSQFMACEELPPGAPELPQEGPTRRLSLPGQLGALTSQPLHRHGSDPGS

{"columns": ["compound", "inhibition at 10 µM (%)"],
 "data": [
  ["COc1cc(NC(=S)NCCCn2cncc2C)ccc1OCCCCc1ccnc(NCCN)c1", 31.5],
  ["COc1cc(NC(=S)NCCCn2cncc2C)ccc1OCCN1CCN(CCO)CC1", 9.7],
  ["COc1cc(NC(=S)NCCCn2cncc2C)ccc1OCCC1CCN(CCO)CC1", 8.2],
  ["COc1cc(NC(=S)NCCCn2cncc2C)ccc1OCCN1CCNCC1C (stereo not given)", 33.4],
  ["COc1cc(NC(=S)NCCCn2cncc2C)ccc1OCCCCN1CCN(CCN)CC1", 21.1],
  ["COc1cc(NC(=S)NCCCn2cncc2C)ccc1OCCN1CC(C)NC(C)C1 (stereo not given)", 2.5],
  ["COc1cc(NC(=S)NCCCn2cncc2C)ccc1Oc1ccc(C2CCNCC2)cc1", 72.8],
  ["COc1cc(NC(=S)NCCCn2cncc2C)ccc1OCC(=O)NC1CCN(CCN)CC1", 17.8],
  ["COc1cc(NC(=S)NCCCn2cncc2C)ccc1OCC(=O)N1CCN(CCN)CC1", 14],
  ["COc1cc(NC(=S)NCCCn2cncc2C)ccc1OCCCN1CCN(CCN)CC1", 28.9]
]}
